Tested on: 926638-142-R-J1-PDC complex spheroid viability;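 further: spheroids exposed to drugs for one week before readout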
Test: Anticancer human tumor 926638-142-R-J1-PDC patient-derived endometrial carcinoma cell line growth inhibition [POLQ]; active means viability on the fitted dose curve at most 10% of control; inactive means the rest
Conditions: second compound 3.16 µM; first compound 10 µM
Returns: one label drawn from active, inactive

Illustrative cases are given below, each with its answer.
[
  {
    "compound": "CCc1cc2c(N3CCc4c(cc(Cn5ccnc5)cc4-c4cn(C)nc4C(F)(F)F)C3=O)ccnc2c(OC)n1 + Cc1cccc(N(C)C(=O)C2C(O)CCN2c2nc(C)cc(C(F)(F)F)c2C#N)c1",
    "tested.target": "926638-142-R-J1-PDC complex spheroid viability",
    "group.label": "inactive"
  },
  {
    "compound": "CC1COCCN1c1cc(C2(S(C)(=N)=O)CC2)nc(-c2ccnc3[nH]ccc23)n1 (stereo unspecified) + Nc1ccc(C#CCN(C(=O)Cc2ncc(C(F)(F)F)cc2C(F)(F)F)c2ccc(F)cc2)nn1",
    "tested.target": "926638-142-R-J1-PDC complex spheroid viability",
    "group.label": "inactive"
  },
  {
    "compound": "COc1cccc2c1C(=O)c1c(O)c3c(c(O)c1C2=O)CC(O)(C(=O)CO)CC3OC1CC(N)C(O)C(C)O1 (stereo unspecified) + Nc1ccc(C#CCN(C(=O)Cc2ncc(C(F)(F)F)cc2C(F)(F)F)c2ccc(F)cc2)nn1",
    "tested.target": "926638-142-R-J1-PDC complex spheroid viability",
    "group.label": "active"
  },
  {
    "compound": "CCCS(=O)(=O)Nc1ccc(F)c(C(=O)c2c[nH]c3ncc(-c4ccc(Cl)cc4)cc23)c1F + Nc1ccc(C#CCN(C(=O)Cc2ncc(C(F)(F)F)cc2C(F)(F)F)c2ccc(F)cc2)nn1",
    "tested.target": "926638-142-R-J1-PDC complex spheroid viability",
    "group.label": "inactive"
  },
  {
    "compound": "COc1cc2cc(C(=O)CCC(=O)O)sc2cc1OC + COC1C(OC(N)=O)C(O)C(Oc2ccc3c(O)c(NC(=O)c4ccc(O)c(CC=C(C)C)c4)c(=O)oc3c2C)OC1(C)C",
    "tested.target": "926638-142-R-J1-PDC complex spheroid viability",
    "group.label": "inactive"
  }
]

Please examine the following record next.
## Input Can you look up the reported call for Nc1ccn(C2OC(CO)C(O)C2(F)F)c(=O)n1 (stereo unspecified) + COC1C(OC(N)=O)C(O)C(Oc2ccc3c(O)c(NC(=O)c4ccc(O)c(CC=C(C)C)c4)c(=O)oc3c2C)OC1(C)C for me?
## Output inactive
